ΔTm at 10 µM values by entry
- Test System: ZmDRIK1 (DROUGHT RESPONSIVE INACTIVE KINASE 1), kinase domain (Zea mays)
- Construct: gene ZEAMMB73_Zm00001d028770; ZmDRIK1-KD R187-S514 (kinase domain)
- Assay Info: biochemical
- Test Parameters: read-out: dTm B, sheet ZmDRIK1-R187-S514;; DSF, Boltzmann fit, 0.1% DMSO

{"columns": ["Compound", "ΔTm at 10 µM"],
 "data": [
  ["C=CC(=O)Nc1ccc2ncnc(Nc3ccc(OCc4cccc(F)c4)c(Cl)c3)c2c1", "-7.98 °C"],
  ["O=C1NC(=O)/C(=C/c2cccc(C(F)(F)F)c2)S1", "-0.708 °C"],
  ["CC(C)(C)Cn1c(N)nc2ccc(-c3[nH]c(C(C)(C)C)nc3-c3ccc(F)cc3)nc21", "-0.95 °C"],
  ["C[C@@H](Oc1cc(-c2cnn(C3CCNCC3)c2)cnc1N)c1c(Cl)ccc(F)c1Cl", "-0.958 °C"],
  ["COc1cc2c(Nc3ccc(NC(=O)c4ccccc4)cc3)ncnc2cc1OCCCN1CCOCC1", "-0.965 °C"],
  ["COc1cc(OC)c(/C=C/S(=O)(=O)Cc2ccc(OC)c(NCC(=O)O)c2)c(OC)c1", "-0.824 °C"],
  ["O=c1[nH]c2ccc(Cl)cc2c(N[C@@H]2CN3CCC2CC3)c1-c1nc2ccccc2[nH]1", "-0.602 °C"],
  ["CN(C)C/C=C/C(=O)Nc1cc2c(Nc3ccc(F)c(Cl)c3)ncnc2cc1O[C@H]1CCOC1", "-0.728 °C"],
  ["COc1cc(N2CCC(N)CC2)ccc1Nc1ncc(Cl)c(-c2c[nH]c3ccccc23)n1", "-0.307 °C"],
  ["Clc1ccc(C2(c3ccc(-c4cn[nH]c4)cc3)CCNCC2)cc1", "-0.971 °C"],
  ["COc1ccc(-c2cc3c(C)nc(N)nc3n([C@H]3CC[C@H](OCCO)CC3)c2=O)cn1", "-0.814 °C"],
  ["O=C(NCCO)c1cccc(-c2cc(Nc3ccc(OC(F)(F)F)cc3)ncn2)c1", "-0.0553 °C"],
  ["Cc1[nH]c(/C=C2\\C(=O)Nc3ccc(S(=O)(=O)N(C)c4cccc(Cl)c4)cc32)c(C)c1C(=O)N1CCN(C)CC1", "-1.31 °C"],
  ["C[C@H](NC(=O)/C(C#N)=C/c1cccc(Br)n1)c1ccccc1", "-3.39 °C"],
  ["O=C(Nc1ccc(-c2ccnc(Nc3ccc(N4CCOCC4)cc3)n2)cc1)C1CCCN1 (stereo not shown)", "-0.481 °C"],
  ["Cc1cn(-c2cc(NC(=O)c3ccc(C)c(Nc4nccc(-c5cccnc5)n4)c3)cc(C(F)(F)F)c2)cn1", "-19.8 °C"],
  ["CCC(=O)Nc1cccc(Oc2nc(Nc3ccc(N4CCN(C)CC4)cc3OC)ncc2Cl)c1", "-0.786 °C"],
  ["CC1=C(C(=O)Nc2cc3cn[nH]c3cc2F)C(c2ccc(C(F)(F)F)cc2)CC(=O)N1 (stereo not shown) [GSK429286A]", "-0.758 °C"],
  ["CNC(=O)c1nn(C)c2c1C(C)(C)Cc1cnc(Nc3ccc(N4CCN(C)CC4)cc3)nc1-2", "-0.178 °C"],
  ["CC(C)(C)NS(=O)(=O)c1cncc(-c2cc(F)c3nc(N)nn3c2)c1", "-0.757 °C"],
  ["COC(=O)[C@]12CCC(C)(C)C[C@H]1[C@H]1C(=O)C=C3[C@@]4(C)C=C(C#N)C(=O)C(C)(C)[C@@H]4CC[C@@]3(C)[C@]1(C)CC2", "-2.89 °C"],
  ["COc1ncc(-c2ccc3nccc(-c4ccnnc4)c3c2)cc1NS(=O)(=O)c1ccc(F)cc1F", "-0.808 °C"],
  ["C=CC(=O)Nc1cccc(Nc2nc(Nc3ccc(OCCOC)cc3)ncc2F)c1", "-0.365 °C"],
  ["O=c1c(O)c(-c2ccc(O)c(O)c2)oc2cc(O)cc(O)c12", "-0.63 °C"],
  ["Nc1nc(Nc2ccc(S(N)(=O)=O)cc2)nn1C(=O)c1c(F)cccc1F", "-0.794 °C"]
]}

====

- Test System: ZmDRIK1-R187-P492 (Zea mays)
- Construct: kinase domain, R187-P492
- Sequence (C0P4K9 1-514): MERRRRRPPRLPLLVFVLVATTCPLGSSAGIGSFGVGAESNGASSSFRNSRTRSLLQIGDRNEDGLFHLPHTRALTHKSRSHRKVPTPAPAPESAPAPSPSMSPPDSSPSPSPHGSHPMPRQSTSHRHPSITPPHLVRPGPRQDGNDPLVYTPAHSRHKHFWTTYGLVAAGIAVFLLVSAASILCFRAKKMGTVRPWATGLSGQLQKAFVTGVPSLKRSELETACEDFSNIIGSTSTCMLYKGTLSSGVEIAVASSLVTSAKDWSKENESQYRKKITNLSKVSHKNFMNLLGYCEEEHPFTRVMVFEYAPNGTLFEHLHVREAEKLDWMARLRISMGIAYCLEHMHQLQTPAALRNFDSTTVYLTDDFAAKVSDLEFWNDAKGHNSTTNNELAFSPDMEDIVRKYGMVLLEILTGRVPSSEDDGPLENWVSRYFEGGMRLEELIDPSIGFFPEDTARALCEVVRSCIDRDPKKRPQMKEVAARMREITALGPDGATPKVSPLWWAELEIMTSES
- Assay Info: biochemical
- Test Parameters: read-out: dTm B, DSF, Boltzmann fit, 0.1% DMSO
Where a name gives a salt, the structure may show the parent alone.
Observed Property: ΔTm at 10 µM

{"columns": ["Compound", "Result"],
 "data": [
  ["Nc1ccc(-c2ccc3ncc4ccc(=O)n(-c5cccc(C(F)(F)F)c5)c4c3c2)cn1", "-0.3 °C"],
  ["CCCCCCCCCCCCc1ccc(S(=O)(=O)Nc2nncs2)cc1", "-0.255 °C"],
  ["CCOC(=O)c1cnc2ccc(-c3cncc(NS(=O)(=O)c4ccccc4)c3)cn12", "-0.247 °C"],
  ["Cc1ccc2nc(NCCN)c3ncc(C)n3c2c1", "-0.153 °C"],
  ["CN[C@@H]1C[C@H]2O[C@@](C)([C@@H]1OC)n1c3ccccc3c3c4c(c5c6ccccc6n2c5c31)C(=O)NC4", "-0.154 °C"],
  ["COc1cc2nccc(Oc3ccc(NC(=O)Nc4cc(C)on4)c(Cl)c3)c2cc1OC", "-3.15 °C"],
  ["CN1CCCN(C(=O)c2cccc(-c3ccc(/C=C4/C(=O)Nc5ccc(Cl)cc54)o3)c2)CC1 [CX-6258 HCl]", "-0.49 °C"]
]}

====

- Test System: ZmDRIK1 (DROUGHT RESPONSIVE INACTIVE KINASE 1), kinase domain (Zea mays, UniProt C0P4K9)
- Construct: gene ZEAMMB73_Zm00001d028770; ZmDRIK1-KD R187-S514 (kinase domain)
- Assay Info: biochemical
- Test Parameters: read-out: dTm B, sheet ZmDRIK1-R187-S514;; DSF, Boltzmann fit, 0.1% DMSO
Counter-ions that a name gives are not always drawn.
Observed Property: ΔTm at 10 µM (°C)

{"columns": ["Compound", "Observed Property", "Unit Descriptor", "Measured Number"],
 "data": [
  ["O=S(=O)(c1cccc2cnccc12)N1CCCNCC1 [Fasudil (HA-1077) HCl]", "ΔTm at 10 µM", "°C", -0.908],
  ["CNC(=O)c1cc(COc2nnc(Nc3ccc(Cl)cc3)c3ccoc23)ccn1", "ΔTm at 10 µM", "°C", -0.862],
  ["COc1cc2c(N3CCN(C(=O)Nc4ccc(OC(C)C)cc4)CC3)ncnc2cc1OCCCN1CCCCC1", "ΔTm at 10 µM", "°C", -0.869],
  ["Nc1ncnc2c1c(-c1cccc(OCc3ccccc3)c1)cn2C1CC(CN2CCCC2)C1 (stereo in doubt)", "ΔTm at 10 µM", "°C", -1.07],
  ["CO[C@H]1C[C@@H]2CC[C@@H](C)[C@@](O)(O2)C(=O)C(=O)N2CCCC[C@H]2C(=O)O[C@H]([C@H](C)C[C@@H]2CC[C@@H](OCCO)[C@H](OC)C2)CC(=O)[C@H](C)/C=C(\\C)[C@@H](O)[C@@H](OC)C(=O)[C@H](C)C[C@H](C)/C=C/C=C/C=C/1C [Everolimus (RAD001)]", "ΔTm at 10 µM", "°C", -0.644],
  ["COc1cc(Nc2c(C#N)cnc3cc(OCCCN4CCN(C)CC4)c(OC)cc23)c(Cl)cc1Cl [Bosutinib (SKI-606)]", "ΔTm at 10 µM", "°C", -0.814],
  ["CS(=O)(=O)N1CCN(Cc2cc3nc(-c4cccc5[nH]ncc45)nc(N4CCOCC4)c3s2)CC1", "ΔTm at 10 µM", "°C", -0.702],
  ["CCCNC(=O)Nc1ccc(Oc2ncnc3cc(OC)c(OC)cc23)cc1Cl", "ΔTm at 10 µM", "°C", -1.02],
  ["Cn1cnc2c(F)c(Nc3ccc(Br)cc3F)c(C(=O)NOCCO)cc21", "ΔTm at 10 µM", "°C", -0.978],
  ["Cc1cc(Nc2cc(N3CCN(C)CC3)nc(Sc3ccc(NC(=O)C4CC4)cc3)n2)n[nH]1", "ΔTm at 10 µM", "°C", -0.713],
  ["CC(C)CCN1c2nc(Nc3cc(F)c(O)c(F)c3)ncc2N(C)C(=O)C1C (stereo not drawn)", "ΔTm at 10 µM", "°C", -0.701],
  ["COCCOc1ccc2c(c1)ncn2-c1ccc2cccc(N3CCC(N)CC3)c2n1", "ΔTm at 10 µM", "°C", -0.398],
  ["CCN1/C(=C/C(C)=O)Sc2ccc(OC)cc21", "ΔTm at 10 µM", "°C", -0.488],
  ["O=c1cc(-c2cccc3c2Sc2ccccc2S3)oc(N2CCOCC2)c1", "ΔTm at 10 µM", "°C", -0.601],
  ["COc1ccc(COc2cc3oc(=O)c4cc(C(C)O)ccc4c3cc2OC)cc1 (stereo not drawn)", "ΔTm at 10 µM", "°C", -0.623],
  ["Cc1ccc(C(=O)Nc2cccc(C(F)(F)F)c2)cc1Nc1nc(-c2cccnc2)nc2c1cnn2C", "ΔTm at 10 µM", "°C", -2.05],
  ["NC(=O)c1cccc(-c2cc(Nc3ccc(OC(F)(F)F)cc3)ncn2)c1", "ΔTm at 10 µM", "°C", -0.138],
  ["N#CC1(c2ccc(NC(=O)c3cccnc3NCc3ccncc3)cc2)CCCC1", "ΔTm at 10 µM", "°C", -0.808],
  ["CCc1ccc(C=C2SC(=S)NC2=O)cc1", "ΔTm at 10 µM", "°C", -1.27],
  ["CN(C)CCCn1cc(C2=C(c3c[nH]c4ccccc34)C(=O)NC2=O)c2ccccc21 [GF109203X]", "ΔTm at 10 µM", "°C", -0.748],
  ["C1=N/C2=N/c3ccc(OCCN4CCCC4)c(c3)COC/C=C/COCc3cccc(c3)C(=C1)N2 [Pacritinib (SB1518)]", "ΔTm at 10 µM", "°C", 0.0273]
]}

This collection of values is drawn from paper PMC7158045.
